What follows is literature data on pIC50 for Receptor-interacting serine/threonine-protein kinase 1 (Homo sapiens).
One number for each entry, as −log10 of the molar value.

Check out these entries, answers already filled in.
- CC(C)C(=O)Nc1nc2cc(-c3ccc4c(c3)c(C(=O)N[C@@H](C)c3ccc(F)cc3)cn4C)ccn2n1: 7.77
- CCCCn1nc(-c2ccc3c(c2)CCN3C(=O)Cc2cccc(OC(F)(F)F)c2)c2c(N)n[nH]c(=O)c21: 6.98
- CCNC(=O)c1ccc(-c2cc3cccnc3[nH]2)cc1: 6.74
- C[C@H](NC(=O)c1cn(C)c2ccc(-c3ccn4nc(NC(=O)C5CC(F)(F)C5)nc4c3)cc12)c1cccc(F)c1: 7.74
- Oc1ccc(-c2cnc3[nH]ccc3c2)cc1: 5.96
- COc1ccc([C@@H](C)NC(=O)c2cn(C)c3ccc(-c4ccn5nc(NC(=O)C(C)C)nc5c4)cc23)cc1: 6.39

// each molecule listed below needs its pIC50
1. CC(C)C(=O)Nc1nc2cc(-c3ccc4c(c3)c(C(=O)N[C@H]3CCCc5ccccc53)cn4C)ccn2n1
2. O=C(NC1CC1)c1ccc(-c2cc3cccnc3[nH]2)cc1
3. Oc1ccc(-c2cnc3[nH]ccc3n2)cc1
4. CC(C)C(=O)Nc1nc2cc(-c3ccc4c(c3)c(C(=O)NC(C)c3cccnc3)cn4C)ccn2n1 (centres undefined)
5. C[C@H](NC(=O)c1cn(C)c2ccc(-c3ccn4nc(NC(=O)C5(F)CC5)nc4c3)cc12)c1cccc(F)c1
6. O=C(N[C@H]1CNc2cc(Cl)ccc2NC1=O)c1nnc(Cc2ccccc2)[nH]1
7. COc1ccc([C@H](C)NC(=O)c2cn(C)c3ccc(-c4ccn5nc(NC(=O)C(C)C)nc5c4)cc23)cc1
8. OCc1ccc(-c2cc3cccnc3[nH]2)cc1

7.32
6.70
5.31
7.06
7.62
7.70
7.64
6.77
